Measured values drawn from ChEMBL document CHEMBL1201862 for this set.

system: EKVX; assay: NCI tumour cell line growth inhibition, 48 h
Calls of active or inactive are those of the source. No stated cut-off is given here; in the data, active = GI50 up to about 1.1 µM and inactive = higher.
readout: GI50

Below: 5 compounds and their reported GI50.
{"compound": "CCCC(=O)Nc1cc(C(=O)N2C[C@@H]3C[C@]34C2=CC(=O)c2[nH]cc(C)c24)n(COC)c1", "GI50": "12.6 µM (inactive)"}
{"compound": "O=C1NC(=O)[C@@H](OCC2CCCCC2)[C@@H]2OCC3OC(C(O)C3O)C12 (stereo partly specified)", "GI50": "> 100 µM (inactive)"}
{"compound": "CC1(c2ccccc2)N=c2[nH]cnc2=C(C(N)=O)N1 (stereo unspecified)", "GI50": "> 100 µM (inactive)"}
{"compound": "Cc1nc2c(=O)[nH]ncc2[nH]1", "GI50": "> 100 µM (inactive)"}
{"compound": "CCC(=O)Nc1ccc(NCC(=O)Nc2ccc(Cl)cc2)cc1", "GI50": "14 µM (inactive)"}

Please turn your attention to the following entry.
## Task Can you look up the measured GI50 of CC(=O)Nc1ccc(C2SCc3nc4ccccc4n32)cc1 (stereo unspecified) for me?
## Result 87.9 µM (inactive)
